Biological target: T1, human DLL4 extracellular domain protein, His-tagged (R&D System Cat: 1506-D4/CF) (human, UniProt Q9NR61 27-522)
T1 construct: range 27-522; Bought protein; also called hDLL4-His; human DLL4-His; not shown: C-terminal histidine tag
T1 sequence (Q9NR61 27-522 limits assumed): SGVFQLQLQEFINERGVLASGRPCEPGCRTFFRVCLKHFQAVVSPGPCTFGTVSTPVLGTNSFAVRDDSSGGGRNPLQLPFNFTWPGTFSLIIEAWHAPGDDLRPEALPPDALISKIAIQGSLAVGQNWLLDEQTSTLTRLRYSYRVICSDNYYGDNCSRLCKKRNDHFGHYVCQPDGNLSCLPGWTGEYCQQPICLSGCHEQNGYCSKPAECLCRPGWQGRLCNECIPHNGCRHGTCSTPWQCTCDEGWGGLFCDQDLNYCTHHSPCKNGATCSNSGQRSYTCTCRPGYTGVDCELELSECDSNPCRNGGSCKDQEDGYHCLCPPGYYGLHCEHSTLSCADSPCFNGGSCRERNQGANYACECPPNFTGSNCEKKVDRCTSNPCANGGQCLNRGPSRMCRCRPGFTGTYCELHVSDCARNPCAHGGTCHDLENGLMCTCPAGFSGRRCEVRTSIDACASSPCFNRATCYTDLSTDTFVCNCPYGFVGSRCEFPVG
Experiment: ELISA solution competition: antibody premixed with DLL4-His; blocks binding to plate-coated hNotch-1-hFc
QUANTITY: pIC50
One number for each entry, as −log10 of the molar value.

Completed entries (count: 3):
BINDER	pIC50
MLCK-1 (antibody, V domains shown, Human monoclonal antibody from a phage scFv library; Only the variable regions are tied to the clone; In flow cytometry it was detected with an anti-human IgG Fc-specific antibody, so it carries a human Fc; also called anti-DLL4 antibody) VH: EVQLLESGGGLVQPGGSLRLSCAASGFTFSDYAMSWVRQAPGKGLEWVSWIYSDDGNKYYADSVKGRFTISRDNSKNTLYLQMNSLRAEDTAVYYCARADPPFDYWGQGTLVTVSS VL: QSVLTQPPSASGTPGQRVTISCTGSSSNIGSNNVSWYQQLPGTAPKLLIYSDNNRPSGVPDRFSGSKSGTSASLAISGLRSEDEADYYCATWDSSLNGYVFGGGTKLTVL	8.88
MLCK-2 (antibody, V domains shown, Human monoclonal antibody from a phage scFv library; Only the variable regions are tied to the clone; In flow cytometry it was detected with an anti-human IgG Fc-specific antibody, so it carries a human Fc; also called MLCK-2 mAb; anti-DLL4 antibody) VH: EVQLLESGGGLVQPGGSLRLSCAASGFTFSDYAMSWVRQAPGKGLEWVSWIYSGSGNKYYADSVKGRFTISRDNSKNTLYLQMNSLRAEDTAVYYCARADWPFDYWGQGTLVTVSS VL: QSVLTQPPSASGTPGQRVTISCTGSSSNIGSNDVTWYQQLPGTAPKLLIYADSKRPSGVPDRFSGSKSGTSASLAISGLRSEDEADYYCGTWDYSLSAYVFGGGTKLTVL	9.39
MLCK-4 (antibody, V domains shown, Human monoclonal antibody from a phage scFv library; Only the variable regions are tied to the clone; In flow cytometry it was detected with an anti-human IgG Fc-specific antibody, so it carries a human Fc; also called anti-DLL4 antibody) VH: EVQLLESGGGLVQPGGSLRLSCAASGFTFSNYAMSWVRQAPGKGLEWVSWIYHGGGDTYYADSVKGRFTISRDNSKNTLYLQMNSLRAEDTAVYYCARGPNYTFGKPFDYWGQGTLVTVSS VL: QSVLTQPPSASGTPGQRVTISCRGSPSNIGNNTVYWYQQLPGTAPKLLIYSDSQRPSGVPDRFSGSKSGTSASLAISGLRSEDEADYYCGSWDYSLSAYVFGGGTKLTVL	8.43

Prompt line: Given MLCK-3 (antibody, V domains shown, Human monoclonal antibody from a phage scFv library; Only the variable regions are tied to the clone; In flow cytometry it was detected with an anti-human IgG Fc-specific antibody, so it carries a human Fc; also called anti-DLL4 antibody) VH: EVQLLESGGGLVQPGGSLRLSCAASGFTFSDYAMSWVRQAPGKGLEWVSWIYYDSGSKYYADSVKGRFTISRDNSKNTLYLQMNSLRAEDTAVYYCARADLPFDYWGQGTLVTVSS VL: QSVLTQPPSASGTPGQRVTISCSGSSSNIGNNAVTWYQQLPGTAPKLLIYSDNHRPSGVPDRFSGSKSGTSASLAISGLRSEDEADYYCGTWDASLSGYVFGGGTKLTVL , respond with its pIC50.
Response line: 9.42
